propertyName: melting point (°C)
Quick reminder: number only, in °C, skip the unit.

Below, 3 compounds whose answers are already recorded.
compound	melting point / °C
O=C(NOC1CCCCO1)c1cnc(N2CCN(S(=O)(=O)c3ccc4ccccc4c3)CC2)nc1 (stereo unspecified)	198
COC(OC)C(CC#N)C(C)(C)S(=O)(=O)c1ccc(C)cc1 (stereo unspecified)	99
CC(Oc1cc(F)cc(F)c1)C1=NCCN1 (stereo unspecified)	134

Sure, the documented melting point for CC(C)C(=O)Oc1cccc2c1C(=O)c1c(O)cccc1C2C(=O)C1CCCCC1 (stereo unspecified) is 146

###

Entries and their melting point values follow.

Solved entries:
compound	melting point
O=C1c2ccccc2C(=O)N1C[C@@H]1CCC=CO1	87 to 88 °C
COCCOc1cccc2cc(-c3nnn[nH]3)c(=O)oc12	215 °C
O=C(NN=C1c2ccc(F)cc2CC1(O)c1ccc(F)cc1)Nc1ccc(Br)cc1 (stereo not given)	235 to 237 °C
Cc1c(C(=O)N[C@H](C)[C@](O)(Cn2cncn2)c2ccc(F)cc2F)cnn1-c1ccc(F)cc1F	208 to 209 °C
CCC([O-])=C(C(=O)OC)N1C(=O)CC1[N+](CC)(CC)CC (stereo not given)	109 to 110 °C
O=C(c1ccc(Cl)cc1)c1cnc2ccc(Cl)cc2c1O	> 260 °C

Reported melting point of `O=C(O)c1cncn1C(C1CCCCC1)C1CCCCC1` : 253 °C

Value of measured melting point for the entry `ON=Cc1cc(OCC(F)(F)F)ccc1OCc1ccccc1` : 93 to 95 °C

melting point reported for this compound CNCC(O)COc1cccc(Nc2cc(Nc3cccc(C)c3)ncn2)c1 (stereo not given) : 88 to 90 °C

For this compound ( Cc1ccc(N2C(=O)C(O)=C(C(=O)c3ccc(OC(F)(F)F)cc3)C2c2ccc(Cn3ccnn3)cc2)nn1 (stereo not given) ), measured melting point is 275 °C
